testTarget: B-Raf kinase (SEQ ID NO: 1) (Homo sapiens, UniProt P15056)
Construct: GST (N); purchased Sigma
Sequence (P15056 416-766): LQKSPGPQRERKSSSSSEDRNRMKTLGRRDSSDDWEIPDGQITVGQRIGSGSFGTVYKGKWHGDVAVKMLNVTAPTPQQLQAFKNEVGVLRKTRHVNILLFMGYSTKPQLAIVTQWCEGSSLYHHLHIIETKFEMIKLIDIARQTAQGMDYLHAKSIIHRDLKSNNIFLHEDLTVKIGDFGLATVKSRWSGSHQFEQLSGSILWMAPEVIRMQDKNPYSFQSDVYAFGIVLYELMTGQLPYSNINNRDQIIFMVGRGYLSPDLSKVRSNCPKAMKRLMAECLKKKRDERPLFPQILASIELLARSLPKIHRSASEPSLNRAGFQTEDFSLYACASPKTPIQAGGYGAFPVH
assayProtocol: Biochemical assay for B-Raf (coupled pyruvate kinase/lactate dehydrogenase)
conditionDetails: 1 mM ATP; read-out: BRAF (inhibition of biochemical activity, IC50)
pIC50: −log10 of the molar value.
attributeMeasured: pIC50

*Q* Would you mind telling me what pIC50 value was observed for Cc1ccc(NC(=O)c2cncc(C3CC3)c2)cc1-c1cc(N[C@H](C)CO)nc(N2CCOCC2)c1 ?
*A* > 7.00

*Q* Would you mind telling me what pIC50 value was observed for Cc1ccc(NC(=O)c2cc(C(F)(F)F)cnn2)cc1-c1cc(N[C@H](C)CO)nc(N2CCOCC2)c1 ?
*A* > 7.00

*Q* Would you mind telling me what pIC50 value was observed for Cc1ccc(NC(=O)c2cc(C3CC3)cnn2)cc1-c1cc(N[C@H](C)CO)nc(N2CCOCC2)n1 ?
*A* 6.30 to 7.00

Now turn to the next molecule.
*Q* Would you mind telling me what pIC50 value was observed for Cc1ccc(NC(=O)c2cc(C3CC3)cnn2)cc1-c1cncc(N2CCOCC2)n1 ?
*A* 5.00 to 6.00
